Target: F508delCFTR (Homo sapiens, UniProt P13569, DEL508-508)
Construct: expressed in transfected cells; host or cells: CFBE41o- human lung-derived epithelial cells (CFBE4lo-F508delCFTR-HRP), doxycycline-inducible
Sequence (P13569 with tags, fused parts or gaps DEL508-508): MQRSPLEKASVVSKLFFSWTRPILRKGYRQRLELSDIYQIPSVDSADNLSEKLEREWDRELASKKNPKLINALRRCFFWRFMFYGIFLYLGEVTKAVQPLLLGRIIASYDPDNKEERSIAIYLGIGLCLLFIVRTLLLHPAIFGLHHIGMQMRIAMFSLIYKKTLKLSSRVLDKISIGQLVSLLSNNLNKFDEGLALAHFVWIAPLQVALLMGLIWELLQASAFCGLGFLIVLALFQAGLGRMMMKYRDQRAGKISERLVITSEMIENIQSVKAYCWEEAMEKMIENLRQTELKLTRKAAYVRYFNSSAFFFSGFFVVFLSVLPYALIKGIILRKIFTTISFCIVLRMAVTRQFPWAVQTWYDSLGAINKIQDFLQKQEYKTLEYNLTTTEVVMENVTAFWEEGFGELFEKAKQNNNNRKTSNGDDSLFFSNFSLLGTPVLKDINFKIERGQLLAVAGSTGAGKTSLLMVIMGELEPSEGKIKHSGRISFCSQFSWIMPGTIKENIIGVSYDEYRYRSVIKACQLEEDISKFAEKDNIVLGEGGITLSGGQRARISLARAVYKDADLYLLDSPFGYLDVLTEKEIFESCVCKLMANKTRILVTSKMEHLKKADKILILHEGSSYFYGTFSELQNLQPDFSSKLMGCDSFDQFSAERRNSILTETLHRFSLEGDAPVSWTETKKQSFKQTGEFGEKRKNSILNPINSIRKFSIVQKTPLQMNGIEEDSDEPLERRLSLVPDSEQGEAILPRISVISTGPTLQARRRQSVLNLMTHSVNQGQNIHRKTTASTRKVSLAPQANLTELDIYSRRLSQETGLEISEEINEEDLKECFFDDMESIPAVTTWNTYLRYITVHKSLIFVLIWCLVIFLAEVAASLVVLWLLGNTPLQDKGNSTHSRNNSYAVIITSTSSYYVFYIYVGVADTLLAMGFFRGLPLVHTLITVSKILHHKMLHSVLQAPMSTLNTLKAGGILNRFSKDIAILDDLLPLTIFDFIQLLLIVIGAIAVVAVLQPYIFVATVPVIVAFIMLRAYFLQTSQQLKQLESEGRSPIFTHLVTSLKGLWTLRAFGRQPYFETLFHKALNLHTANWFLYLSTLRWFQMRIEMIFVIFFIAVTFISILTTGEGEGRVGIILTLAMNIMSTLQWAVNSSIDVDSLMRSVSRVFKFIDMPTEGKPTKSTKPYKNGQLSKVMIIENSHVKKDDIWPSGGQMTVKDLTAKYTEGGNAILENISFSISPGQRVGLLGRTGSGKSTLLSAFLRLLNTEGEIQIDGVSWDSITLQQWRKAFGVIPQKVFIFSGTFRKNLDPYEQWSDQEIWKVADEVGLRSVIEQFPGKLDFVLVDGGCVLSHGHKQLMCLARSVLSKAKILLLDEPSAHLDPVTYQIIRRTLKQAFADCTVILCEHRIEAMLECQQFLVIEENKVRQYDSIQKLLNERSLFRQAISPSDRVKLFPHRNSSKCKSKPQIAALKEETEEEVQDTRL
Assay: Cell Surface Expression-Horse Radish Peroxidase (CSE-HRP) Assay
Type: cell-based
Settings: CSE-HRP; test compound without co-corrector; read-out: EC50 (without co-corrector)
Endpoint label: EC50

Fill blank: measured EC50 of the compound COc1cc(F)ccc1CN[C@H]1[C@H](C(C)(C)C)[C@@H](C(=O)O)N(C(=O)C2CCCCC2)[C@H]1c1ccccc1 is ____.
1 to 10 µM

So what's the measured EC50 for this one? COc1ccc(C(C)(C)C)cc1CN[C@H]1[C@H](C(C)(C)C)[C@@H](C(=O)O)N(C(=O)C2CCC2)[C@H]1c1ccccc1C(F)(F)F
1 to 10 µM

If you can, please state the reported EC50 value of COc1ccc(C(F)(F)F)cc1CN[C@H]1[C@H](C(C)(C)C)[C@@H](C(=O)O)N(C(=O)[C@@H]2CCCCO2)[C@H]1c1ccccc1Br .
1 to 10 µM

====

Target: F508delCFTR (Homo sapiens, UniProt P13569, DEL508-508)
Construct: expressed in transfected cells; host or cells: CFBE41o- human lung-derived epithelial cells (CFBE4lo-F508delCFTR-HRP), doxycycline-inducible
Test: Cell Surface Expression-Horse Radish Peroxidase (CSE-HRP) Assay;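 as to Maximum % activity (with co-corrector): co-corrector and positive control are both the same reference corrector at 2 µM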
Type: cell-based
Conditions: CSE-HRP; with co-corrector (2 μM); maximum at any tested concentration, normalized to on-plate positive control
Endpoint label: Maximum % activity (with co-corrector)

Previously resolved entries follow.
Molecule	Endpoint label	Measured result
COc1ncc(C(F)(F)F)cc1CN[C@H]1[C@H](C(C)(C)C)[C@@H](C(=O)O)N(C(=O)C2CCCCC2)[C@H]1c1ccccc1C [Example I-258]	Maximum % activity (with co-corrector)	+++ (≥350)
CC(C)c1ccccc1[C@H]1[C@@H](NCc2cccc3c2OC(C)(C)C3)[C@H](C(C)(C)C)[C@@H](C(=O)O)N1C(=O)[C@@H]1CCCO1 [Example I-305]	Maximum % activity (with co-corrector)	+++ (≥350)
CC(C)(C)[C@H]1[C@H](NCc2ccc(F)c(Oc3ccccc3)c2)[C@H](c2ccccc2)N(C(=O)C2CCCCC2)[C@@H]1C(=O)O [II-130]	Maximum % activity (with co-corrector)	++ (≥150 and <350)
COc1ncc(C(F)(F)F)cc1CN[C@H]1[C@H](C(C)(C)C)[C@@H](C(=O)O)N(C(=O)C2CCC2)[C@H]1c1ccccc1C(F)(F)F [Example I-280]	Maximum % activity (with co-corrector)	++ (≥150 and <350)
COc1ncccc1CN[C@@H]1[C@@H](C(C)(C)C)[C@H](C(=O)O)N(C(=O)C2CCCCC2)[C@@H]1c1ccccc1 (racemic) [II-6]	Maximum % activity (with co-corrector)	+++ (≥350)

Now examine the next entry.
Recorded Maximum % activity (with co-corrector) for COc1ncc(C2CCC2)cc1CN[C@H]1[C@H](C(C)(C)C)[C@@H](C(=O)O)N(C(=O)C2CCCCC2)[C@H]1c1cccc2c1OC(C)(C)C2 [Example I-307] , please?
+++ (≥350)

====

Biological target: F508delCFTR (Homo sapiens, UniProt P13569, DEL508-508)
Construct: expressed in transfected cells; host or cells: CFBE41o- human lung-derived epithelial cells (CFBE4lo-F508delCFTR-HRP), doxycycline-inducible
Experiment: Cell Surface Expression-Horse Radish Peroxidase (CSE-HRP) Assay
Assay type: cell-based
Conditions: with co-corrector (2 μM of 3-[(2R,4R)-4-({[1-(2,2-difluoro-1,3-benzodioxol-5-yl)cyclopropyl]carbonyl}amino)-7-methoxy-3,4-dihydro-2H-chromen-2-yl]benzoic acid); read-out: EC50 (with co-corrector)
Endpoint label: EC50

Param readout= EC50; system= F508delCFTR (Homo sapiens, UniProt P13569, DEL508-508); entry= COc1ccc(C(C)(C)C)cc1CN[C@H]1[C@H](C(C)(C)C)[C@@H](C(=O)O)N(C(=O)[C@H](C)[C@@H]2CCCCO2)[C@H]1c1ccccc1 (relative stereo) ; returns value.
1000 to 10000 nM

Look up EC50 with F508delCFTR (Homo sapiens, UniProt P13569, DEL508-508) for this compound: COc1ccc(C(C)(C)C)cc1CN[C@H]1[C@H](C(C)(C)C)[C@@H](C(=O)O)N(C(=O)C(Oc2ccccc2C)C(C)C)[C@H]1c1ccccc1 (some centres unmarked)
< 1000 nM

Request body: readout EC50, system F508delCFTR (Homo sapiens, UniProt P13569, DEL508-508), query COc1ccc(C2(C(F)(F)F)CC2)cc1CN[C@H]1[C@H](C(C)(C)C)[C@@H](C(=O)O)N(C(=O)C2Cc3ccccc3O2)[C@H]1c1cccnc1N(C)C (single isomer, unassigned) [Example I-175] . Return the value.
< 1000 nM

Lab note: need EC50 with F508delCFTR (Homo sapiens, UniProt P13569, DEL508-508) for entry COc1ncc(C2CCC2)cc1CN[C@H]1[C@H](C(C)(C)C)[C@@H](C(=O)O)N(C(=O)C2CC(C)CC(C)C2)[C@H]1c1ccccc1 (some centres unmarked) , please look it up.
< 1000 nM

Record lookup: for F508delCFTR (Homo sapiens, UniProt P13569, DEL508-508), what EC50 belongs to COc1ccc(C(F)(F)F)cc1CN[C@H]1[C@H](C(C)(C)OC)[C@@H](C(=O)O)N(C(=O)OC(C)C)[C@H]1c1ccccc1 ?
1000 to 10000 nM

Query the reported EC50 for F508delCFTR (Homo sapiens, UniProt P13569, DEL508-508); item: COc1cc(C(F)(F)F)ccc1CN[C@@H]1[C@@H](C(C)(C)C)[C@H](C(=O)O)N(C(=O)OC(C)C)[C@@H]1c1cccnc1N(C)C (racemic)
1000 to 10000 nM

Return EC50 measured with F508delCFTR (Homo sapiens, UniProt P13569, DEL508-508) given this compound: COc1ccc(C(F)(F)F)cc1CN[C@H]1[C@H](C(C)(C)C)[C@@H](C(=O)O)N(C(=O)[C@@H]2CCCC(F)(F)C2)[C@H]1c1ccccc1
1000 to 10000 nM

# returns recorded EC50 (system: F508delCFTR (Homo sapiens, UniProt P13569, DEL508-508)) for COc1ccc(C(C)(C)C)cc1CN[C@@H]1[C@@H](C(C)(C)C)[C@@H](C(=O)O)N(C(=O)C2CCCCC2)[C@H]1c1ccccc1
1000 to 10000 nM

Request body: readout EC50, system F508delCFTR (Homo sapiens, UniProt P13569, DEL508-508), query COc1cccc([C@@H]2[C@H](NCc3ccccc3OC(F)F)[C@@H](C(C)(C)C)[C@H](C(=O)O)N2C(=O)N(C(C)C)C(C)C)n1 (racemic) . Return the value.
1000 to 10000 nM

Notebook entry, F508delCFTR (Homo sapiens, UniProt P13569, DEL508-508) assay: EC50 of COc1ccc(C(C)(C)C)cc1CN[C@H]1[C@H](C(C)(C)C)[C@@H](C(=O)O)N(C(=O)c2ccc3c(c2)OCCO3)[C@H]1c1cccnc1N(C)C = ?
1000 to 10000 nM

What value of EC50 on F508delCFTR (Homo sapiens, UniProt P13569, DEL508-508) does COC(=O)N1[C@H](C(=O)O)[C@@H](C(C)(C)C)[C@H](NCc2cc(C(C)(C)C)ccc2OC)[C@@H]1c1ccccc1 have?
1000 to 10000 nM
